target: human BiP (Homo sapiens); construct: The human BiP gene except the signal peptide encoding region was obtained from Geneart (Germany); linker […]; made in house; host or cells: HEK 293E cells, transient transfection, PABC674 vector; secreted into the medium; assay: Competition ELISA: BiP binding to misfolded proteins under influence of crossbeta binding compounds; settings: fixed sub-optimal BiP concentration; concentration series of ThS
Sequence (P11021 19-654): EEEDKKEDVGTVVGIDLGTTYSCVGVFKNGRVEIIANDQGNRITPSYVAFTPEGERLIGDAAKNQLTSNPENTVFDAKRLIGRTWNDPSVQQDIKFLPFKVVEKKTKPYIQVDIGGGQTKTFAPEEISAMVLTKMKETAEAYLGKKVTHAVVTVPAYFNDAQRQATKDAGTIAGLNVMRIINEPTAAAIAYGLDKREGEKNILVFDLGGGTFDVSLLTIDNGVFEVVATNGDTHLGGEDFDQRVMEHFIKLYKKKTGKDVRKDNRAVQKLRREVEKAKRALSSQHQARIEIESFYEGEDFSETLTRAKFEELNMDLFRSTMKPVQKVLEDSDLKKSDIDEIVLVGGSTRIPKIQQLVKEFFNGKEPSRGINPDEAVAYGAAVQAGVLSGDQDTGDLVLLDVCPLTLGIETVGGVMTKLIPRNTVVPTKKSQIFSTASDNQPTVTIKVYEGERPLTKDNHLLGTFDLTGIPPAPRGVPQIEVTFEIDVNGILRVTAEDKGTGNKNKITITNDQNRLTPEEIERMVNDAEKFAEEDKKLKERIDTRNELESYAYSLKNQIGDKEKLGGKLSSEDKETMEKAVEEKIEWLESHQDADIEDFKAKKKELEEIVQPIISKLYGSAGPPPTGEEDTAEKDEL
Property Name: Influence of ThS on interaction of BiP with misfolded protein

QUERY: State its Influence of ThS on interaction of BiP with misfolded protein for this sequence: GSNKGAIIGLM [6BB6, Human Aβ (25-35)]
RESULT: −

====

target: human BiP (Homo sapiens); construct: The human BiP gene except the signal peptide encoding region was obtained from Geneart (Germany); linker […]; made in house; host or cells: HEK 293E cells, transient transfection, PABC674 vector; secreted into the medium; test: ELISA: binding of BiP-FLAG-His to immobilized (misfolded) protein ligands; details: ligands coated at 5 μg/ml; 6BB peptides and oxLDL 50 μg/ml
Property Name: Binding of concentration series of BiP to coated ligand

Example results:
QUERY: State its Binding of concentration series of BiP to coated ligand for this substance: LFWPFEWI [6BB9]
RESULT: has been established

QUERY: State its Binding of concentration series of BiP to coated ligand for this substance: AGEYYAAL [6BB7]
RESULT: did not bind

QUERY: State its Binding of concentration series of BiP to coated ligand for this substance: KRLEVDIDIKIRS [FP13, synthetic fibrin fragment comprising crossbeta structure]
RESULT: has been established

QUERY: State its Binding of concentration series of BiP to coated ligand for this substance: KRLEVDIDIK [FP10, synthetic fibrin peptide without crossbeta structure (negative control)]
RESULT: did not bind

QUERY: State its Binding of concentration series of BiP to coated ligand for this substance: FWGLWPWE [6BB11]
RESULT: has been established

***
QUERY: State its Binding of concentration series of BiP to coated ligand for this substance: HWDFAWPW [6BB10]
RESULT: has been established

QUERY: State its Binding of concentration series of BiP to coated ligand for this substance: GSNKGAIIGLM [6BB6, Human Aβ (25-35)]
RESULT: has been established
